biological target: UniProt P35462
Sequence (P35462 whole entry): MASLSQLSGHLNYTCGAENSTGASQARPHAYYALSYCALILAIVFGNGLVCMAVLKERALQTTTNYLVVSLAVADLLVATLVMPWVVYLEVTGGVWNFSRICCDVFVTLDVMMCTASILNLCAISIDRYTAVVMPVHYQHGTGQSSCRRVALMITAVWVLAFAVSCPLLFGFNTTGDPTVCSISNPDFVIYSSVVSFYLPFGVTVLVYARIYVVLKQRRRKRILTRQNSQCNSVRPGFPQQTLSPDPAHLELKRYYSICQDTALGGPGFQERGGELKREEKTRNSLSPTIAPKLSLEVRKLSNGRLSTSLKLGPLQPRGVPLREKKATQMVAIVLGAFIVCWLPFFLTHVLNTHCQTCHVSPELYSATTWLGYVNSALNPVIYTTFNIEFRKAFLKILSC
result_type: AC50

Lookup: Entry `CO/N=C(\C(=O)N[C@@H]1C(=O)N2C(C(=O)[O-])=C(C[N+]3(C)CCCC3)CS[C@H]12)c1csc(N)n1` : reported AC50 = ?
Found: > 300 µM

Lookup: And for Cc1cc2c(OCC(CNC(C)(C)C)OC(=O)c3ccccc3)cccc2[nH]1 (stereo not given) ?
Found: > 30 µM

Lookup: Try this compound too: `CCCC(=O)N1CCCN(c2nc(N)c3cc(OC)c(OC)cc3n2)CC1`
Found: 21 µM

Lookup: Now give it for `CN[C@@H](C)[C@H](O)c1ccccc1` too.
Found: > 10 µM

Lookup: What do we get for `CC(=O)N[C@H]1[C@H]([C@H](O)[C@H](O)CO)OC(C(=O)O)=C[C@@H]1N=C(N)N` ?
Found: > 30 µM

Lookup: Try `Cc1nc2ccc(CN(C)c3ccc(C(=O)N[C@@H](CCC(=O)O)C(=O)O)s3)cc2c(=O)[nH]1` next.
Found: > 30 µM

Lookup: And for CC(C(=O)O)c1ccc(N2CC=CC2)c(Cl)c1 (stereo not given) ?
Found: > 10 µM

Lookup: Next: `O=C(O)Cc1cn(-c2ccccc2)nc1-c1ccc(Cl)cc1`
Found: > 30 µM

Lookup: For CN1C(=O)CC(c2ccccc2)C1=O (stereo not given) [PHENSUXIMIDE] then?
Found: > 30 µM

Lookup: Next: `C#C[C@]1(O)CC[C@H]2[C@@H]3CCc4cc(O)ccc4[C@H]3CC[C@@]21C`
Found: > 10 µM

Lookup: Input `O=C(CCCCCCC(=O)Nc1ccccc1)NO`
Found: > 30 µM

Lookup: Similarly, `COc1cc(Nc2c(C#N)cnc3cc(OCCCN4CCN(C)CC4)c(OC)cc23)c(Cl)cc1Cl` ?
Found: 5.6 µM

Lookup: What do you get for CCCCC(C)(O)C/C=C/[C@H]1[C@H](O)CC(=O)[C@@H]1CCCCCCC(=O)OC (stereo not given in full) ?
Found: > 30 µM

Lookup: How about this compound: `C[C@H]1C[C@@H]2[C@H]([C@@H](O)C[C@@]3(C)[C@H]2CC[C@]3(O)C(=O)CO)[C@@]2(C)C=CC(=O)C=C12`
Found: > 30 µM

Lookup: Next up: `CCC[C@@H]1C[C@@H](C(=O)N[C@@H]([C@H]2O[C@H](SC)[C@H](O)[C@@H](O)[C@H]2O)[C@H](C)Cl)N(C)C1`
Found: > 10 µM

Lookup: // next record CCN(CC)CCNC(=O)c1cc(Cl)c(N)cc1OC [METOCLOPRAMIDE]
Found: 0.076 µM

Lookup: Request: `C[N+](C)(C)CCOC(N)=O`
Found: > 30 µM

Lookup: Note, next up: `CC(C)NNC(=O)c1ccncc1`
Found: > 30 µM

Lookup: Now try CC(C)NCC1CCc2cc(CO)c([N+](=O)[O-])cc2N1 (stereo not given) .
Found: 7.4 µM

Lookup: Now this one: `CC[C@]1(O)C[C@@H]2CN(CCc3c([nH]c4ccccc34)[C@@](C(=O)OC)(c3cc4c(cc3OC)N(C)[C@H]3[C@@](O)(C(N)=O)[C@H](O)[C@]5(CC)C=CCN6CC[C@]43[C@@H]65)C2)C1`
Found: > 30 µM

Lookup: Now consider `CC(C)(C(=O)c1cccnc1)c1cccnc1` and answer again.
Found: > 30 µM

Lookup: Note, next up: NS(=O)(=O)c1cc(Cl)c(Cl)c(S(N)(=O)=O)c1 [DICHLORPHENAMIDE]
Found: > 30 µM

Lookup: Another compound: `COc1ccc2cccc(CCNC(C)=O)c2c1`
Found: > 10 µM

Lookup: Param item: CN1CCCC(n2nc(Cc3ccc(Cl)cc3)c3ccccc3c2=O)CC1 (stereo not given)
Found: 6.5 µM

Lookup: Input Cc1cccc(C)c1NC(=O)C1CCCCN1C (stereo not given) [MEPIVACAINE]
Found: > 30 µM

Lookup: Try the compound CC(C(=O)O)c1ccc(C(=O)c2cccs2)cc1 (stereo not given)
Found: > 30 µM

Lookup: Same question for NC(=O)C[S+]([O-])C(c1ccccc1)c1ccccc1 (stereo not given) please.
Found: > 10 µM

Lookup: Okay, and NS(=O)(=O)c1cc2c(cc1Cl)NC(CC1CCCC1)NS2(=O)=O (stereo not given) [CYCLOPENTHIAZIDE] ?
Found: > 30 µM

Lookup: Can you handle COc1c(N2CCNC(C)C2)c(F)cc2c(=O)c(C(=O)O)cn(C3CC3)c12 (stereo not given) next?
Found: > 30 µM

Lookup: Then `Cc1cc(-c2ccccc2)nnc1NCCN1CCOCC1` ?
Found: > 10 µM

Lookup: Item: N[C@@H](C(=O)N[C@@H]1C(=O)N2C(C(=O)O)=C(Cl)CS[C@H]12)c1ccccc1 [CEFACLOR ANHYDROUS]
Found: > 30 µM

Lookup: Same thing, different compound: `CC(=O)c1ccc2c(c1)N(CCCN1CCN(CCO)CC1)c1ccccc1S2`
Found: 0.0044 µM

Lookup: Okay, and CCC(C(=O)O)c1ccc(CC(C)C)cc1 (stereo not given) ?
Found: > 30 µM

Lookup: Request: C[C@H]1C[C@@H]2[C@H]([C@@H](O)C[C@@]3(C)[C@H]2CC[C@]3(O)C(=O)COC(=O)CCC(=O)O)[C@@]2(C)C=CC(=O)C=C12 [METHYLPREDNISOLONE HEMISUCCINATE]
Found: > 30 µM

Lookup: Can you check `CCCCCOC(=O)Nc1nc(=O)n([C@@H]2O[C@H](C)[C@@H](O)[C@H]2O)cc1F` next?
Found: > 30 µM

Data provenance is ChEMBL document CHEMBL5291721.
